# system_name: human orexin 1 receptor (Homo sapiens (Human), UniProt O43613)
# Sequence (O43613 whole entry): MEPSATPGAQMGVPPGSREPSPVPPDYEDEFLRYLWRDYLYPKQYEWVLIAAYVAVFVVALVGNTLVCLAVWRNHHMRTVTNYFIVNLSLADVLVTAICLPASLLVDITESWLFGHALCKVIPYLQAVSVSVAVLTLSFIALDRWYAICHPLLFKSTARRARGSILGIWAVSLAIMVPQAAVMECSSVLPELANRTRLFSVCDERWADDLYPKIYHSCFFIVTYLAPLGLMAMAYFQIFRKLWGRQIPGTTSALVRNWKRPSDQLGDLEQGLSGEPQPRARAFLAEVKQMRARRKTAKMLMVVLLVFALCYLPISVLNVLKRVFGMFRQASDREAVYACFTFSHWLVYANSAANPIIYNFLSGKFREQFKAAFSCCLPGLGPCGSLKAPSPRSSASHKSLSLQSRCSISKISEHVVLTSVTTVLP
# measurement_notes: Human orexin 1 receptor radioligand binding (competitive, [3H]-SB674042, CHO cell preparations)
# setup_conditions: human orexin 1 receptor, [3H]-SB674042 competition binding; read-out: hOX1 Ki (nm)
pKi: −log10 of the molar value.
A collection of compounds and their measured pKi

compound | pKi
CCOc1ccc2cccnc2c1C(=O)N1C2CCC1C(COc1ccccn1)C2 (racemic) | 8.15
Cc1cc(C)nc(OCC2CC3CCC2N3C(=O)c2c(C)noc2-c2ccccc2)n1 (racemic) | 5.30
O=C(c1cccc(F)c1-n1nccn1)N1C2CCC1C(COc1ccccn1)C2 (racemic) | 6.72
Cc1ccc(-c2ncco2)c(C(=O)N2C3CCC2C(COc2ccc(F)cn2)C3)n1 (racemic) | 7.60
Cc1ccc(N2CCCC2)c(C(=O)N2C3CCC2C(COc2ccccn2)C3)n1 (racemic) | 7.49
CCOc1ccnc(OCC)c1C(=O)N1C2CCC1C(COc1ccccn1)C2 (racemic) | 6.82
Cc1ccc(OCC2CC3CCC2N3C(=O)c2cc(C)ccc2-n2nccn2)nc1 (racemic) [Example 167] | 8.05
O=C(c1ncccc1-n1nccn1)N1[C@@H]2CC[C@H]1[C@H](Nc1cnc(C(F)(F)F)cn1)C2 | 6.89
